# Tested on: normal BALB/C mice
# Protocol details: Toxicity (acute lethality) after i.v. tail vein injection in mice
# Type: in vivo
# Setup conditions: 0.2 mL, five BALB/C mice per dose group, 7 days
Parameter measured: LD-0 (maximum dose at which no mortality was observed for seven days post injection) (mmol/kg)
Answers are plain numbers, in mmol/kg.

O=C(O)CN(CC(=O)O)[C@@H]1CCCC[C@H]1N(CC(=O)O)CC(=O)O (relative stereo) :: 0.05
CC(=O)N(O)CCCCCNC(=O)CCC(=O)N(O)CCCCCNC(=O)CCC(=O)N(O)CCCCCN :: 0.5
O=C([O-])C(NCCNC(C(=O)[O-])c1ccccc1[O-])c1ccccc1[O-].[Fe+3] (stereo not shown) :: 0.9

GET /values?readout=LD-0 (maximum dose at which no mortality was observed for seven days post injection)&system=normal BALB/C mice&item= CC(=O)N([O-])CCCCCNC(=O)CCC(=O)N([O-])CCCCCNC(=O)CCC(=O)N([O-])CCCCCN.[Fe+3]
0.5

Data provenance is patent US4909257A.
